Test system: Chordin-like protein 2 (CHRDL2)
ASSAY PROTOCOL: CHRDL2 small-molecule binders, primary screen, biochemical, small-molecule microarray, 635 nm fluorescence (AID 1126);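 also: printed compound slides probed with Chrdl2 protein at 4 µg/mL for 1 h at 4 C; score merges 667 nm emission intensity with signal to noise over three replicate slides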
RUN CONDITIONS: small-molecule microarray binding, fluorescence 635 nm; higher = more signal
Reported composite z-score maps to class as: L (below -0.2), M (-0.2 to below 0.4), H (0.4 or more)

# COMPOUND, CLASS NAME
measured = [
    ("O=C1OCC=C[C@H]2OC34C=CCN(c5ccc(Cl)cc5)C(=O)[C@H]3N(CCCCCO)C(=O)[C@@H]4[C@@H]12 (stereo not given in full)", "L"),
    ("C=CCOC(=O)[C@H]1[C@@H]2C(=O)O[C@@H](c3ccccc3)[C@@H](c3ccccc3)N2[C@@H](c2ccc(OCCOC(=O)[C@H]3C[C@H]4C(=O)N[C@@H](Cc5ccccc5)C(=O)N4[C@H]3c3ccc(O)cc3)cc2)[C@]12C(=O)Nc1ccc(I)cc12", "H"),
    ("O=C(CS)NCCCCCCNC(=O)[C@H]1C[C@H]2C(=O)N[C@@H](Cc3ccccc3)C(=O)N2[C@H]1c1cccc(OCCO)c1", "H"),
    ("CN1C(=O)[C@@]2(CCS(=O)(=O)c3ccccc3)N=C(c3ccc(OCCCO)cc3)O[C@H]2c2ccccc21", "M"),
    ("CN(C)CCCNC(=O)[C@@]1(c2ccc([N+](=O)[O-])cc2)CC(=O)N(CC23CC4CC(CC(C4)C2)C3)[C@@H]1c1ccc(CO)cc1", "H"),
    ("C=CCN1Cc2ccccc2C[C@@]2(N=C(c3ccc(OCCCO)cc3)O[C@H]2c2ccccc2)C1=O", "M"),
    ("C=CC[C@@]1(C(=O)O)N=C(c2ccc(OCCCO)cc2)O[C@@H]1c1ccccc1", "L"),
    ("CCOc1cc(C(O)C2C=CC3C(=O)N(C4CCCCC4)C(=O)C3N2Nc2ccc(OC)cc2)ccc1O (stereo not given)", "M"),
    ("C=CCOC(=O)[C@@H]1[C@H]2C(=O)O[C@H](c3ccccc3)[C@H](c3ccccc3)N2[C@H](c2ccc(OCCOC(=O)[C@H]3C[C@H]4C(=O)N[C@@H](CCCCNC(C)=O)C(=O)N4[C@H]3c3cccc(OCCO)c3)cc2)[C@@]12C(=O)Nc1ccc(I)cc12", "H"),
    ("COC(=O)[C@@]1(Cc2ccccc2)[C@H]2c3cc(C(=O)N4CCCC4)[nH]c3C[C@H]2CN1C(=O)c1ccccc1", "L"),
    ("COC(=O)C(CC#Cc1ccc2c(c1)[C@]1(C(=O)N2)[C@H](C(=O)O)[C@H]2C(=O)O[C@H](c3ccccc3)[C@H](c3ccccc3)N2[C@@H]1c1ccccc1OCCO)C(=O)OC", "M"),
    ("COCCOC(=O)N1C(=O)[C@@]2(c3ccccc31)[C@H](C(=O)N1CCN(c3ncccn3)CC1)[C@H]1C(=O)O[C@H](c3ccccc3)[C@H](c3ccccc3)N1[C@@H]2c1ccc(OCCO)cc1", "M"),
    ("CC(C)(C)OC(=O)CC[C@@]1(C(=O)O)N=C(c2ccc(OCCCO)cc2)O[C@@H]1c1ccccc1CN=[N+]=[N-]", "L"),
    ("COCCOC(=O)N1C(=O)[C@@]2(c3cc(C#CC4=CCCCC4)ccc31)[C@H](c1ccccc1OCCO)N1[C@H](c3ccccc3)[C@H](c3ccccc3)OC(=O)[C@H]1[C@@H]2C(=O)N1CCc2cc(OC)c(OC)cc2C1", "H"),
    ("COc1ccc([Si](C)(C)[C@H]2[C@H](CCn3cc([C@H](O)c4ccccc4)nn3)O[C@@]3(C(=O)N(Cc4ccc(N5CCC5=O)cc4)c4ccccc43)[C@@H]2C)cc1", "H"),
    ("C=CCOC(=O)[C@@H]1[C@H]2C(=O)O[C@H](c3ccccc3)[C@H](c3ccccc3)N2[C@H](c2ccc(OCCOC(=O)[C@H]3C[C@H]4C(=O)N[C@@H](CCCCN(C)C)C(=O)N4[C@H]3c3cccc(OCCO)c3)cc2)[C@@]12C(=O)Nc1ccc(I)cc12", "H"),
    ("CC(C)C(CO)N1C(=O)[C@]2(C)C3C(=O)OCCC/C=C\\[C@H]3OC23C=CCN(c2ccc(Cl)cc2)C(=O)[C@@H]13 (stereo not given in full)", "L"),
    ("CC(C)CNC(=O)[C@@H]1c2ccccc2C(=O)N(Cc2cc(F)cc(C(F)(F)F)c2)[C@H]1c1ccc(CO)cc1", "M"),
    ("CC(C)c1ccc(NN2C(C(O)c3ccco3)C=CC3C(=O)N(c4ccccc4)C(=O)C32)cc1 (stereo not given)", "L"),
    ("C=CCN1C(=O)[C@]2(CC=C)N=C(c3ccc(OCCCO)cc3)O[C@@H]2c2ccccc21", "H"),
    ("COCCOC(=O)N1C(=O)[C@@]2(c3cc(C#Cc4ccc(OC)cc4)ccc31)[C@H](C(=O)N1CCN(c3ncccn3)CC1)[C@H]1C(=O)O[C@H](c3ccccc3)[C@H](c3ccccc3)N1[C@@H]2c1ccccc1OCCO", "M"),
    ("CC(C)(C)N1CC=CC23O[C@@H]4C=CCOC(=O)[C@@H]4[C@H]2C(=O)N(CCCO)[C@@H]3C1=O (stereo not given in full)", "L"),
    ("C[C@H]1C2=C3C(CC[C@H]4C(OCc5ccc(F)cc5C(F)(F)F)OC[C@](C)([C@@H]34)N(C(=O)OC(C)(C)C)C2)C(CO)C1CO (stereo not given in full)", "L"),
]
